Taken from the supplement of paper PMC4862054.

System: HCC1937
Test: normalised response (% of control), CellTiter-Glo; higher = more viable cells (100 = DMSO, 0 = benzethonium chloride kill control)
Conditions: incubation time: 72 h
As shown below, each of these compounds has a reported normalised response value.
Report the figure in % without appending any unit label.

The cases that follow already have their normalised response on record.
COMPOUND	TEST_RESULT
COc1cc(Nc2c(C#N)cnc3cc(OCCCN4CCN(C)CC4)c(OC)cc23)c(Cl)cc1Cl [Bosutinib] (10000 nM)	5.6
O=C(CCCCCCC(=O)Nc1ccccc1)NO [Vorinostat] (10000 nM)	43.6
CC(C)C[C@H](NC(=O)[C@@H](COC(C)(C)C)NC(=O)[C@H](Cc1ccc(O)cc1)NC(=O)[C@H](CO)NC(=O)[C@H](Cc1c[nH]c2ccccc12)NC(=O)[C@H](Cc1cnc[nH]1)NC(=O)[C@@H]1CCC(=O)N1)C(=O)N[C@@H](CCCNC(=N)N)C(=O)N1CCC[C@H]1C(=O)NNC(N)=O [Goserelin] (10000 nM)	96
Cn1cc(C2=C(c3cn(C4CCN(Cc5ccccn5)CC4)c4ccccc34)C(=O)NC2=O)c2ccccc21 [Enzastaurin] (10000 nM)	101
CNC(=O)c1ccccc1Sc1ccc2c(/C=C/c3ccccn3)n[nH]c2c1 [Axitinib] (10000 nM)	79.2

Entry CO[C@@H]1[C@H](N(C)C(=O)c2ccccc2)C[C@H]2O[C@]1(C)n1c3ccccc3c3c4c(c5c6ccccc6n2c5c31)C(=O)NC4 [Midostaurin] (10000 nM) — recorded normalised response = 50.1

Data point: CC1(COc2ccc3c(c2)ncn3-c2ccc3cccc(N4CCC(N)CC4)c3n2)COC1 [Crenolanib] (10000 nM) ; normalised response = 52.4
